Data credit: patent US20210267944A1

- Assay notes: clinical
- Condition description: human, in vivo, Plasma level concentration, Patient 11, Treatment; 30 min
Where a name gives a salt, the structure may show the parent alone.
Endpoint name: concentration at 30 min (ng/mL)
# number only, unit ng/mL dropped from output

# input What value of measured concentration at 30 min is listed for Cc1cccc([C@H](C)c2cnc[nH]2)c1C [dexmedetomidine hydrochloride] ?
# output 0.0629

====

- Assay notes: clinical
- Condition description: human, in vivo, Plasma level concentration, Patient 18, Treatment; 15 min
Where a name gives a salt, the structure may show the parent alone.
Endpoint name: concentration at 15 min (ng/mL)
# number only, unit ng/mL dropped from output

# input What value of measured concentration at 15 min is listed for Cc1cccc([C@H](C)c2cnc[nH]2)c1C [dexmedetomidine hydrochloride] ?
# output 0.0484

====

- Assay notes: clinical
- Condition description: human, in vivo, Plasma level concentration, Patient 1, Treatment; 15 min of infusion
Counter-ions that a name gives are not always drawn.
Endpoint name: concentration at 15 min (ng/mL)
# number only, unit ng/mL dropped from output

# input What value of measured concentration at 15 min is listed for Cc1cccc([C@H](C)c2cnc[nH]2)c1C [dexmedetomidine hydrochloride] ?
# output 0.0225
